target: SARS-CoV-2 spike protein on pseudotyped lentivirus (Wuhan Reference Pseudovirus) (SARS-CoV-2, UniProt P0DTC2 14-1273); experiment: cell-based or functional assay
Here, each record is paired with measured infectivity % under 10 ug/mL VHH treatment data.
Measure: infectivity % under 10 ug/mL VHH treatment (%)

{"Binder": "PP1109 MBP-5HVZ-PAPA-RN-25-H6 (VHH, Form: Dimer) VHH: QVQLVESGGGLVQPGGSLRLSCAASGEDYSYNAAHWFRQAPGKEREWVAAINSGGGTYYADSVKGRFTISRDNAKNTVYLQMNSLKPEDTAVYYCAYLGALDRDGYDAWGQGTQVTVSS", "Number": 88}
{"Binder": "PP907 MBP-5HVZ-S1b-E11-H6 (VHH, Form: Dimer) VHH: QVQLVESGGGLVQPGGSLRLSCAASGSYASIASMHWFRQAPGKEREFVAGVTSGGSTNYGDSVKGRFTISRDNAKNTVYLQMNSLKPEDTAVYYCNALAGANYESQWEEYNYWGQGTQVTVSS", "Number": 76.3}
{"Binder": "PP821 MBP-R5A-D6-H6 (VHH, Form: Monomer) VHH: QVQLVESGGGLVQPGGSLRLSCAASGNDWYINSAHWYRQAPGKEREFVASVSRGGSNNYRDSVKGRFTISRDNAKNTVYLQMNSLKPEDTAVYYCAALLETSSGDYTYWGQGTQVTVSS", "Number": 76.7}
{"Binder": "PP1159 MPB-scTRP-PAPA-R5a-B7-H6 (VHH, Form: Trimer) VHH: QVQLVESGGGLVQPGGSLRLSCAASGAFFSYGAIHWFRQAPGKQREEVAAITSGGSTGYADSVKGRFTISRDNAKNTVYLQMNSLKPEDTAVYYCNAGVVWLPSNAAYNLWGQGTQVTVSS", "Number": 17.7}
{"Binder": "PP931 MBP-5HVZ-R5a-F5-H6 (VHH, Form: Dimer) VHH: QVQLVESGGGLVQPGGSLRLSCAASGYHASILAMHWVRQAPGKEREWVASMTWSDMTQYSDSVKGRFTISRDNAKNTVYLQMNSLKPEDTAVYYCAATYVTRDRPWTHWGQGTQVTVSS", "Number": 57.5}
{"Binder": "PP1113 MBP-5HVZ-PAPA-RN-29-H6 (VHH, Form: Dimer) VHH: QVQLVESGGGLVQPGGSLRLSCAASGYILSENLTAWFRQAPGKAREVVATVTSGDYTNYDDSVKGRFTISRDNAKNTVYLQMNSLKPEDTAVYYCAAGTSDWEVKWSHWGQGTQVTVSS", "Number": 6.25}
{"Binder": "PP1111 MBP-5HVZ-PAPA-RN-27-H6 (VHH, Form: Dimer) VHH: QVQLVESGGGLVQPGGSLRLSCAASGPQFSSNAVSWFRQAPGKEREWVAGITSGGSTDYADSVKGRFTISRDNAKNTVYLQMNSLKPEDTAVYYCTAPSVSDADRRTRDYWGQGTQVTVSS", "Number": 68.3}
{"Binder": "PP905 MBP-5HVZ-S1a-C4-H6 (VHH, Form: Dimer) VHH: QVQLVESGGGLVQPGGSLRLSCAASGSRDSINTAHWYRQAPGKAREWVASLDNSTTGSYADSVKGRFTISRDNAKNTVYLQMNSLKPEDTAVYYCAAVTGTPGGLGFYDYWGQGTQVTVSS", "Number": 75.7}
{"Binder": "PP902 MBP-5HVZ-R1e-D4-H6 (VHH, Form: Dimer) VHH: QVQLVESGGGLVQPGGSLRLSCAASGSIREINAMHWVRQAPGKGRELVASIDSGSLDYYADSVKGRFTISRDNAKNTVYLQMNSLKPEDTAVYYCAASRSGDYRYWGQGTQVTVSS", "Number": 72.4}
{"Binder": "PP930 MBP-5HVZ-R2b-D4-H6 (VHH, Form: Dimer) VHH: QVQLVESGGGLVQPGGSLRLSCAASGSYASIASMHWFRQAPGKQREFVAGLTSGGSRIYGDSVKGRFTISRDNAKNTVYLQMNSLKPEDTAVYYCTALILHYAGMYDYWGQGTQVTVSS", "Number": 35.6}
{"Binder": "PP1144 MBP-5HVZ-PAPA-R2c-F6-H6 (VHH, Form: Dimer) VHH: QVQLVESGGGLVQPGGSLRLSCAASGRILAANIVHWYRQAPGKEREGVAGITTGGSNYYSDSVKGRFTISRDNAKNTVYLQMNSLKPEDTAVYYCNALGLGSASGSYESWGQGTQVTVSS", "Number": 9.18}
{"Binder": "PP1094 MBP-5HVZ-PAPA-RN-1-H6 (VHH) VHH: QVQLVESGGGLVQPGGSLRLSCAASGYIFEGGPTAWFRQAPGKGREFVAAITTSGETSYAYSVKGRFTISRDNAKNTVYLQMNSLKPEDTAVYYCNATDRDETGYDYWGQGTQVTVSS", "Number": 83.4}
{"Binder": "PP1105 MBP-5HVZ-PAPA-RN-20-H6 (VHH, Form: Dimer) VHH: QVQLVESGGGLVQPGGSLRLSCAASGNYFEINKMHWFRQAPGKQREFVATIGSGGSTAYADSVKGRFTISRDNAKNTVYLQMNSLKPEDTAVYYCNALIYLADRRDGYYSYDYWGQGTQVTVSS", "Number": 79.8}
{"Binder": "PP815 MBP-R5A-A1-H6 (VHH, Form: Monomer) VHH: QVQLVESGGGLVQPGGSLRLSCAASGAELSYTAIHWFRQAPGKQREFVATINSGGSSYYADSVKGRFTISRDNAKNTVYLQMNSLKPEDTAVYYCTALLDSTYDYWGQGTQVTVSS", "Number": 84.4}
{"Binder": "PP813 MBP-R2E-D2-H6 (VHH, Form: Monomer) VHH: QVQLVESGGGLVQPGGSLRLSCAASGHQLSTNATHWFRQAPGKNREFVASIGSGSSSYYADSVKGRFTISRDNAKNTVYLQMNSLKPEDTAVYYCTALGGDELDGMTYDYWGQGTQVTVSS", "Number": 75.5}

Each recorded value in this set is attributed to patent US20240150440A1.
